Please provide measured viability, T/C for the entries that follow.
test system: KRAS patient-derived spheroids with HUVEC/MSC, viability; assay: Anticancer human tumor 941728-121-R-J1-PDC patient-derived lung adenocarcinoma cell line growth inhibition [KRAS2]; details: second compound 10 µM; first compound 0.316 µM; stronger effect = lower value
State the answer as a number, implicitly in %.

Lab note: measured viability, T/C of CC1(C)CCC(CN2CCN(c3ccc(C(=O)NS(=O)(=O)c4ccc(NCC5CCOCC5)c([N+](=O)[O-])c4)c(Oc4cnc5[nH]ccc5c4)c3)CC2)=C(c2ccc(Cl)cc2)C1 + C=CC(=O)N1CCN(c2nc(=O)n(-c3c(C)ccnc3C(C)C)c3nc(-c4c(O)cccc4F)c(F)cc23)C(C)C1 was 25.7

Lab note: measured viability, T/C of O=C(c1cc(Cc2n[nH]c(=O)c3ccccc23)ccc1F)N1CCN(C(=O)C2CC2)CC1 + COc1cc2nc(C)nc(NC(C)c3cc(N)cc(C(F)(F)F)c3)c2cc1OC1CCOC1 was 26.1

====

system: KRAS patient-derived spheroids with HUVEC/MSC, viability; assay: Anticancer human tumor 941728-121-R-J1-PDC cell line growth inhibition [KRAS2]; conditions: second compound 0.1 µM; first compound 0.1 µM; stronger effect = lower value;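 also: spheroids exposed to agents for seven days before readout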
Categorize each record by its viability, T/C using low value = under 20%, medium value = from 20% up to 40%, high value = 40% and over

In plain terms, what class is COc1cc2nccc(Oc3ccc(NC(=O)C4(C(=O)Nc5ccc(F)cc5)CC4)cc3)c2cc1OC + C=CC(=O)N1CCN(c2nc(=O)n(-c3c(C)ccnc3C(C)C)c3nc(-c4c(O)cccc4F)c(F)cc23)C(C)C1 ?
low value

In plain terms, what class is CC(C)NCC(C(=O)N1CCN(c2ncnc3c2C(C)CC3O)CC1)c1ccc(Cl)cc1 (stereo not given) + CNCc1ccccc1-c1csc(C(C)Nc2nc(C)nc3cc(OC)c(OC)cc23)c1 ?
high value

In plain terms, what class is CC1OCC2(CCN(c3cnc(Sc4ccnc(N)c4Cl)c(N)n3)CC2)C1N (stereo not given) + C=CC(=O)N1CCN(c2nc(=O)n(-c3c(C)ccnc3C(C)C)c3nc(-c4c(O)cccc4F)c(F)cc23)C(C)C1 ?
medium value

In plain terms, what class is Cn1ncnc1[C@H]1c2n[nH]c(=O)c3cc(F)cc(c23)N[C@@H]1c1ccc(F)cc1 + COc1cc2nc(C)nc(NC(C)c3cc(N)cc(C(F)(F)F)c3)c2cc1OC1CCOC1 ?
high value

In plain terms, what class is CC1(C)CCC(CN2CCN(c3ccc(C(=O)NS(=O)(=O)c4ccc(NCC5CCOCC5)c([N+](=O)[O-])c4)c(Oc4cnc5[nH]ccc5c4)c3)CC2)=C(c2ccc(Cl)cc2)C1 + C=CC(=O)N1CCN(c2nc(OCC3CCCN3C)nc3c2CCN(c2cccc4cccc(C)c24)C3)CC1CC#N ?
medium value

In plain terms, what class is Cn1nccc1Nc1nccc(-c2cc3c(s2)C(C)(C)N(CCN2CCOCC2)C3=O)n1 + CNCc1ccccc1-c1csc(C(C)Nc2nc(C)nc3cc(OC)c(OC)cc23)c1 ?
high value

In plain terms, what class is CC(=O)OC12COC1CC(O)C1(C)C(=O)C(O)C3=C(C)C(OC(=O)C(O)C(NC(=O)OC(C)(C)C)c4ccccc4)CC(O)(C(OC(=O)c4ccccc4)C21)C3(C)C (stereo not given) + C=CC(=O)N1CCN(c2nc(OCC3CCCN3C)nc3c2CCN(c2cccc4cccc(C)c24)C3)CC1CC#N ?
medium value

In plain terms, what class is CC(C)n1nc(-c2ccc3oc(N)nc3c2)c2c(N)ncnc21 + C=CC(=O)N1CCN(c2nc(=O)n(-c3c(C)ccnc3C(C)C)c3nc(-c4c(O)cccc4F)c(F)cc23)C(C)C1 ?
low value

In plain terms, what class is CC1COCCN1c1cc(-c2ccnn2C)c2ccnc(-c3ccn[nH]3)c2n1 (stereo not given) + C=CC(=O)N1CCN(c2nc(=O)n(-c3c(C)ccnc3C(C)C)c3nc(-c4c(O)cccc4F)c(F)cc23)C(C)C1 ?
low value

In plain terms, what class is Cn1ncnc1[C@H]1c2n[nH]c(=O)c3cc(F)cc(c23)N[C@@H]1c1ccc(F)cc1 + CNCc1ccccc1-c1csc(C(C)Nc2nc(C)nc3cc(OC)c(OC)cc23)c1 ?
medium value

====

Please provide measured IC50 for the entries that follow.
system: KRAS patient-derived spheroids with HUVEC/MSC, viability; experiment: Anticancer human tumor 941728-121-R-J1-PDC cell line growth inhibition [KRAS2]; details: curve of first compound; second compound 1 µM;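 also: spheroids exposed to agents for seven days before readout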

Lab note: measured IC50 of CCN1CCN(Cc2ccc(Nc3ncc(F)c(-c4cc(F)c5nc(C)n(C(C)C)c5c4)n3)nc2)CC1 + COc1cc2nc(C)nc(NC(C)c3cc(N)cc(C(F)(F)F)c3)c2cc1OC1CCOC1 was < 3.16 nM

Lab note: measured IC50 of CC(C)NCC(C(=O)N1CCN(c2ncnc3c2C(C)CC3O)CC1)c1ccc(Cl)cc1 (centres undefined) + CC1OCC2(CCN(c3cnc(Sc4ccnc(N)c4Cl)c(N)n3)CC2)C1N was < 31.6 nM

Lab note: measured IC50 of Cn1ncnc1[C@H]1c2n[nH]c(=O)c3cc(F)cc(c23)N[C@@H]1c1ccc(F)cc1 + COc1cc2nc(C)nc(NC(C)c3cc(N)cc(C(F)(F)F)c3)c2cc1OC1CCOC1 was < 0.316 nM

Lab note: measured IC50 of O=C(c1cc(Cc2n[nH]c(=O)c3ccccc23)ccc1F)N1CCN(C(=O)C2CC2)CC1 + C=CC(=O)N1CCN(c2nc(OCC3CCCN3C)nc3c2CCN(c2cccc4cccc(C)c24)C3)CC1CC#N was < 31.6 nM

====

tested on: KRAS patient-derived spheroids with HUVEC/MSC, viability; experiment: Anticancer human tumor 941728-121-R-J1-PDC cell line growth inhibition [KRAS2]; settings: second compound 1 µM; first compound 0.1 µM; stronger effect = lower value;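 also: spheroids exposed to agents for seven days before readout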
endpoint: viability, T/C (%)
State the answer as a number, implicitly in %.

Lab note: measured viability, T/C of O=C(c1cc(Cc2n[nH]c(=O)c3ccccc23)ccc1F)N1CCN(C(=O)C2CC2)CC1 + COc1cc2nc(C)nc(NC(C)c3cc(N)cc(C(F)(F)F)c3)c2cc1OC1CCOC1 was 114

Lab note: measured viability, T/C of CC1OCC2(CCN(c3cnc(Sc4ccnc(N)c4Cl)c(N)n3)CC2)C1N (stereo unspecified) + COc1cc2nc(C)nc(NC(C)c3cc(N)cc(C(F)(F)F)c3)c2cc1OC1CCOC1 was 43.8

Lab note: measured viability, T/C of CCNC(=O)CC1N=C(c2ccc(Cl)cc2)c2cc(OC)ccc2-n2c(C)nnc21 (stereo unspecified) + COc1cc2nc(C)nc(NC(C)c3cc(N)cc(C(F)(F)F)c3)c2cc1OC1CCOC1 was 40.7

Lab note: measured viability, T/C of CC1OCC2(CCN(c3cnc(Sc4ccnc(N)c4Cl)c(N)n3)CC2)C1N (stereo unspecified) + C=CC(=O)N1CCN(c2nc(=O)n(-c3c(C)ccnc3C(C)C)c3nc(-c4c(O)cccc4F)c(F)cc23)C(C)C1 was 24.7

Lab note: measured viability, T/C of CC(C)n1nc(-c2ccc3oc(N)nc3c2)c2c(N)ncnc21 + CNCc1ccccc1-c1csc(C(C)Nc2nc(C)nc3cc(OC)c(OC)cc23)c1 was 7.65

Lab note: measured viability, T/C of Cn1ncnc1[C@H]1c2n[nH]c(=O)c3cc(F)cc(c23)N[C@@H]1c1ccc(F)cc1 + CC1OCC2(CCN(c3cnc(Sc4ccnc(N)c4Cl)c(N)n3)CC2)C1N was 26.4

====

system: KRAS patient-derived spheroids with HUVEC/MSC, viability; experiment: Anticancer human tumor 941728-121-R-J1-PDC cell line growth inhibition [KRAS2]; conditions: second compound 0.0316 µM; first compound 0.0316 µM; stronger effect = lower value;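 also: spheroids exposed to agents for seven days before readout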
endpoint: viability, T/C (%)
State the answer as a number, implicitly in %.

Lab note: measured viability, T/C of CC1OCC2(CCN(c3cnc(Sc4ccnc(N)c4Cl)c(N)n3)CC2)C1N (stereo unspecified) + C=CC(=O)N1CCN(c2nc(OCC3CCCN3C)nc3c2CCN(c2cccc4cccc(C)c24)C3)CC1CC#N was 32.3

Lab note: measured viability, T/C of COc1cc(Nc2ncc3c(n2)-c2ccc(Cl)cc2C(c2c(F)cccc2OC)=NC3)ccc1C(=O)O + C=CC(=O)N1CCN(c2nc(OCC3CCCN3C)nc3c2CCN(c2cccc4cccc(C)c24)C3)CC1CC#N was 32.1

Lab note: measured viability, T/C of CC(=O)Nc1cccc(-n2c(=O)n(C3CC3)c(=O)c3c(Nc4ccc(I)cc4F)n(C)c(=O)c(C)c32)c1 + C=CC(=O)N1CCN(c2nc(OCC3CCCN3C)nc3c2CCN(c2cccc4cccc(C)c24)C3)CC1CC#N was 25.1

Lab note: measured viability, T/C of CC(=O)OC12COC1CC(O)C1(C)C(=O)C(O)C3=C(C)C(OC(=O)C(O)C(NC(=O)OC(C)(C)C)c4ccccc4)CC(O)(C(OC(=O)c4ccccc4)C21)C3(C)C (stereo unspecified) + C=CC(=O)N1CCN(c2nc(OCC3CCCN3C)nc3c2CCN(c2cccc4cccc(C)c24)C3)CC1CC#N was 28.4

Lab note: measured viability, T/C of CC(C)NCC(C(=O)N1CCN(c2ncnc3c2C(C)CC3O)CC1)c1ccc(Cl)cc1 (stereo unspecified) + C=CC(=O)N1CCN(c2nc(OCC3CCCN3C)nc3c2CCN(c2cccc4cccc(C)c24)C3)CC1CC#N was 29.1

Lab note: measured viability, T/C of CC(C)n1nc(-c2ccc3oc(N)nc3c2)c2c(N)ncnc21 + C=CC(=O)N1CCN(c2nc(OCC3CCCN3C)nc3c2CCN(c2cccc4cccc(C)c24)C3)CC1CC#N was 11.5

Lab note: measured viability, T/C of COc1cc2nccc(Oc3ccc(NC(=O)C4(C(=O)Nc5ccc(F)cc5)CC4)cc3)c2cc1OC + C=CC(=O)N1CCN(c2nc(OCC3CCCN3C)nc3c2CCN(c2cccc4cccc(C)c24)C3)CC1CC#N was 17.9

Lab note: measured viability, T/C of CCNC(=O)CC1N=C(c2ccc(Cl)cc2)c2cc(OC)ccc2-n2c(C)nnc21 (stereo unspecified) + C=CC(=O)N1CCN(c2nc(OCC3CCCN3C)nc3c2CCN(c2cccc4cccc(C)c24)C3)CC1CC#N was 31.2

Lab note: measured viability, T/C of CC1(C)CCC(CN2CCN(c3ccc(C(=O)NS(=O)(=O)c4ccc(NCC5CCOCC5)c([N+](=O)[O-])c4)c(Oc4cnc5[nH]ccc5c4)c3)CC2)=C(c2ccc(Cl)cc2)C1 + C=CC(=O)N1CCN(c2nc(OCC3CCCN3C)nc3c2CCN(c2cccc4cccc(C)c24)C3)CC1CC#N was 26.6

Lab note: measured viability, T/C of Cn1nccc1Nc1nccc(-c2cc3c(s2)C(C)(C)N(CCN2CCOCC2)C3=O)n1 + C=CC(=O)N1CCN(c2nc(OCC3CCCN3C)nc3c2CCN(c2cccc4cccc(C)c24)C3)CC1CC#N was 29.5

Lab note: measured viability, T/C of O=C(c1cc(Cc2n[nH]c(=O)c3ccccc23)ccc1F)N1CCN(C(=O)C2CC2)CC1 + C=CC(=O)N1CCN(c2nc(OCC3CCCN3C)nc3c2CCN(c2cccc4cccc(C)c24)C3)CC1CC#N was 36.5

Lab note: measured viability, T/C of CCN1CCN(Cc2ccc(Nc3ncc(F)c(-c4cc(F)c5nc(C)n(C(C)C)c5c4)n3)nc2)CC1 + C=CC(=O)N1CCN(c2nc(OCC3CCCN3C)nc3c2CCN(c2cccc4cccc(C)c24)C3)CC1CC#N was 23.5

Lab note: measured viability, T/C of Cn1ncnc1[C@H]1c2n[nH]c(=O)c3cc(F)cc(c23)N[C@@H]1c1ccc(F)cc1 + C=CC(=O)N1CCN(c2nc(OCC3CCCN3C)nc3c2CCN(c2cccc4cccc(C)c24)C3)CC1CC#N was 17.4

Lab note: measured viability, T/C of CN(C)C/C=C/C(=O)Nc1cc2c(Nc3ccc(F)c(Cl)c3)ncnc2cc1O[C@H]1CCOC1 + C=CC(=O)N1CCN(c2nc(OCC3CCCN3C)nc3c2CCN(c2cccc4cccc(C)c24)C3)CC1CC#N was 20.5

Lab note: measured viability, T/C of CC1COCCN1c1cc(-c2ccnn2C)c2ccnc(-c3ccn[nH]3)c2n1 (stereo unspecified) + C=CC(=O)N1CCN(c2nc(OCC3CCCN3C)nc3c2CCN(c2cccc4cccc(C)c24)C3)CC1CC#N was 24.8

Lab note: measured viability, T/C of COC(=O)c1ccc2c(C(=Nc3ccc(N(C)C(=O)CN4CCN(C)CC4)cc3)c3ccccc3)c(O)[nH]c2c1 + C=CC(=O)N1CCN(c2nc(OCC3CCCN3C)nc3c2CCN(c2cccc4cccc(C)c24)C3)CC1CC#N was 30.6
